- testSystem: HIF-1α/p300 (Homo sapiens, UniProt Q09472)
- Sequence (Q09472 331-417 limits assumed): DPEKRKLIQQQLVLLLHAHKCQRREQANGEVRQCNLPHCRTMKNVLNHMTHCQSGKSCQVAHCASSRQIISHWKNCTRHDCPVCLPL
- assayExplanation: HIF-1α/p300 screening assay
- Assay type: binding
reportedProperty: pIC50
Lab note: report pIC50 as minus log10 of the concentration in molar units, number only.

Could you share what pIC50 was measured for CN1C(=O)[C@]2(Cc3cn([C@]45C[C@@]67SS[C@@](CO)(C(=O)N6[C@H]4Nc4ccccc45)N(C)C7=O)c4ccccc34)SS[C@@]1(CO)C(=O)N2C [chetomin, reference compound] , tested on HIF-1α/p300 (Homo sapiens, UniProt Q09472)? 5.72

Values from paper PMC6323635
